Source: ChEMBL document CHEMBL5385967

IC50 reference
# Tested on: L5178Y
# PROTOCOL: Antiproliferative activity against mouse L5178Y cells assessed as reduction in cell viability incubated for 72 hrs by MTT assay
# Assay type: functional, cell-based
Report the value in µM with no unit label.

COMPOUND_SMILES	MEASURED_PARAMETER	UNIT_LABEL	ASSAY_VALUE
C=C1CC[C@@H]2[C@](C)(COC(C)=O)[C@H](OC(C)=O)CC[C@@]2(C)[C@@H]1C[C@H](NNc1ccc(Br)cn1)C1=CCOC1=O	IC50	µM	20.6

compound C=C1CC[C@@H]2[C@](C)(COC(C)=O)[C@H](OC(C)=O)CC[C@@]2(C)[C@@H]1C[C@H](NNC(=S)Nc1ccc(C)cc1)C1=CCOC1=O , IC50 observed: 36.1

The value of IC50 measured for the compound C=C1CC[C@@H]2[C@](C)(COC(C)=O)[C@H](OC(C)=O)CC[C@@]2(C)[C@@H]1C[C@H](NNC(=S)NCCN1CCOCC1)C1=CCOC1=O turned out to be 61.5

====

# TARGET_SYSTEM: ATP-dependent translocase ABCB1 (Homo sapiens, UniProt P08183)
# Sequence (P08183 whole entry): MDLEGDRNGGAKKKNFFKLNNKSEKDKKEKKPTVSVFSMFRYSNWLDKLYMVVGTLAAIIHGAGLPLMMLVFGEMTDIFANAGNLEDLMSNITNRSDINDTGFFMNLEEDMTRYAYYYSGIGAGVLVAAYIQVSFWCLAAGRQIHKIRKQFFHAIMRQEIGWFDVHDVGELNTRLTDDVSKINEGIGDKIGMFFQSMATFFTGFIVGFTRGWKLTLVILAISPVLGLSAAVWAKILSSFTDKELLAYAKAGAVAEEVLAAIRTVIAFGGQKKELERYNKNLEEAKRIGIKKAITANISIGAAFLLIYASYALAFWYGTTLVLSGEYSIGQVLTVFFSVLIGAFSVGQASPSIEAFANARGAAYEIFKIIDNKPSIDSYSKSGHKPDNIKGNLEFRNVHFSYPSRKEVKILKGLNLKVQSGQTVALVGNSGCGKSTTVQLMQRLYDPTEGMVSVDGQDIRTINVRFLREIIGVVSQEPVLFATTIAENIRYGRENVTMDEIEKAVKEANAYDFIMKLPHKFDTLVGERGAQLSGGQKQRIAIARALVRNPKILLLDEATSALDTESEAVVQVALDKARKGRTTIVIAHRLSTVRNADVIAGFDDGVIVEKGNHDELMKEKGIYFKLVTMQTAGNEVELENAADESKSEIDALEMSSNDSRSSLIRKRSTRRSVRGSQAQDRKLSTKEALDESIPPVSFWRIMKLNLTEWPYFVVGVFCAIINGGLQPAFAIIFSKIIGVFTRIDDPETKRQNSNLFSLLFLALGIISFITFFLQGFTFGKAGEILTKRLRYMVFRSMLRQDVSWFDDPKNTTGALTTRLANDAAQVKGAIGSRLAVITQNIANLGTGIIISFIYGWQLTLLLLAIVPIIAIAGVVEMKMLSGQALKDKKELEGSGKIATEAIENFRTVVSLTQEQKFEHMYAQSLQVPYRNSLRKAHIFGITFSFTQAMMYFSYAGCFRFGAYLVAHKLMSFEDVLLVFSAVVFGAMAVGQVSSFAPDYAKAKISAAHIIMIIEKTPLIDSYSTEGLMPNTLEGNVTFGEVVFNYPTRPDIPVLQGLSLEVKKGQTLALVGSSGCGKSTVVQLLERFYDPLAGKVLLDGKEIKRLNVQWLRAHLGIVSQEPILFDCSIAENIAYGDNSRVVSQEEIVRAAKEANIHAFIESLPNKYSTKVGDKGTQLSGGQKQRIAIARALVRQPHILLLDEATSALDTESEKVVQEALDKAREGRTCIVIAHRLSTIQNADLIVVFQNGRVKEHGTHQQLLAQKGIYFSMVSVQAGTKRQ
# PROTOCOL: Modulation of human P-gp transfected in mouse L5178Y cells assessed as change in Rhodamine-123 efflux by measuring fluorescence activity ratio at 20 uM pretreated for 10 mins followed by Rhodamine-123 challenge for 20 mins by flow cytometry relative to parental mouse L5178Y cells
# Format: cell-based
# APPLIED_CONDITIONS: 0.5 h, time 30 min
Bucketed by reported Ratio, buckets being lo = under 40, mid = from 40 up to 60, hi = 60 and over

COMPOUND_SMILES	CLASS_ASSIGNMENT
C=C1CC[C@@H]2[C@](C)(COC(C)=O)[C@H](OC(C)=O)CC[C@@]2(C)[C@@H]1C[C@H](NNC(=S)Nc1ccccc1F)C1=CCOC1=O	hi

Qu. Each molecule maps to one class by Ratio. Which class for C=C1CC[C@@H]2[C@](C)(COC(C)=O)[C@H](OC(C)=O)CC[C@@]2(C)[C@@H]1C[C@H](NNC(=S)NC(C)(C)C)C1=CCOC1=O ?
Ans. mid

Qu. Entry C=C1CC[C@@H]2[C@](C)(COC(C)=O)[C@H](OC(C)=O)CC[C@@]2(C)[C@@H]1C[C@H](NNC(=S)NC)C1=CCOC1=O belongs to which category?
Ans. mid

Qu. Class? Entry: C=C1CC[C@@H]2[C@](C)(COC(C)=O)[C@H](OC(C)=O)CC[C@@]2(C)[C@@H]1C/C=C1/C(=O)OC[C@H]1OC(C)=O
Ans. lo

Qu. Category of C=C1CC[C@@H]2[C@](C)(COC(C)=O)[C@H](OC(C)=O)CC[C@@]2(C)[C@@H]1C[C@H](NNC(=S)NCCN1CCOCC1)C1=CCOC1=O :
Ans. mid

Qu. Which class holds C=C1CC[C@@H]2[C@](C)(COC(C)=O)[C@H](OC(C)=O)CC[C@@]2(C)[C@@H]1C[C@H](NNC(=O)OCc1ccc(OC)cc1)C1=CCOC1=O ?
Ans. hi

Qu. Entry C=C1CC[C@@H]2[C@](C)(COC(C)=O)[C@H](OC(C)=O)CC[C@@]2(C)[C@@H]1C[C@H](NNC(=S)NCc1ccco1)C1=CCOC1=O belongs to which category?
Ans. lo

Qu. Band assignment needed for C=C1CC[C@@H]2[C@](C)(COC(C)=O)[C@H](OC(C)=O)CC[C@@]2(C)[C@@H]1C[C@H](NNC(=S)Nc1ccc(CC)cc1)C1=CCOC1=O please.
Ans. hi

Qu. Input C=C1CC[C@@H]2[C@](C)(COC(C)=O)[C@H](OC(C)=O)CC[C@@]2(C)[C@@H]1C[C@H](NNC(=S)Nc1cccc2ccccc12)C1=CCOC1=O ; output its category
Ans. lo

Qu. Hey, which category is C=C1CC[C@@H]2[C@](C)(COC(C)=O)[C@H](OC(C)=O)CC[C@@]2(C)[C@@H]1C[C@H](NNC(=S)NC1CCCCC1)C1=CCOC1=O in, do you know?
Ans. hi

Qu. Input C=C1CC[C@@H]2[C@](C)(COC(C)=O)[C@H](OC(C)=O)CC[C@@]2(C)[C@@H]1C[C@H](NNC(=S)Nc1ccccc1)C1=CCOC1=O ; output its category
Ans. mid

====

# TARGET_SYSTEM: ATP-dependent translocase ABCB1 (Homo sapiens, UniProt P08183)
# PROTOCOL: Modulation of human P-gp transfected in mouse L5178Y cells assessed as change in Rhodamine-123 efflux by measuring fluorescence activity ratio at 0.2 uM pretreated for 10 mins followed by Rhodamine-123 challenge for 20 mins by flow cytometry relative to parental mouse L5178Y cells
# Assay type: cell-based
# APPLIED_CONDITIONS: 0.5 h, time 30 min
MEASURED_PARAMETER: Ratio
In your answer, state the number alone without any accompanying words.

Some solved cases for reference:
COMPOUND_SMILES	ASSAY_VALUE
C=C1CC[C@@H]2[C@](C)(COC(C)=O)[C@H](OC(C)=O)CC[C@@]2(C)[C@@H]1C[C@H](NNC(=O)c1cccnc1)C1=CCOC1=O	0.49
C=C1CC[C@@H]2[C@](C)(COC(C)=O)[C@H](OC(C)=O)CC[C@@]2(C)[C@@H]1C[C@H](NNC(=O)c1ccc(N)cc1)C1=CCOC1=O	0.48
C=C1CC[C@@H]2[C@](C)(COC(C)=O)[C@H](OC(C)=O)CC[C@@]2(C)[C@@H]1C[C@H](NNC(=O)c1cccs1)C1=CCOC1=O	0.54
C=C1CC[C@@H]2[C@](C)(COC(C)=O)[C@H](OC(C)=O)CC[C@@]2(C)[C@@H]1C[C@H](NNC(=O)c1ccco1)C1=CCOC1=O	2.32

Lab book: Ratio of C=C1CC[C@@H]2[C@](C)(COC(C)=O)[C@H](OC(C)=O)CC[C@@]2(C)[C@@H]1C[C@H](NNC(=O)c1ccc(C(F)(F)F)cc1)C1=CCOC1=O noted as 0.37

Reported Ratio ( C=C1CC[C@@H]2[C@](C)(COC(C)=O)[C@H](OC(C)=O)CC[C@@]2(C)[C@@H]1C[C@H](NNC(=O)c1ccc(Cl)cc1)C1=CCOC1=O ) = 1.56

Note to self: Ratio recorded for C=C1CC[C@@H]2[C@](C)(COC(C)=O)[C@H](OC(C)=O)CC[C@@]2(C)[C@@H]1C[C@@H](NNC(=O)c1ccc(C(F)(F)F)cc1)C1=CCOC1=O was 1.63

// field: Ratio; key: C=C1CC[C@@H]2[C@](C)(COC(C)=O)[C@H](OC(C)=O)CC[C@@]2(C)[C@@H]1C[C@H](NNc1ccc(Br)cn1)C1=CCOC1=O ; value = 2.34

====

# System: L5178Y
# PROTOCOL: Antiproliferative activity against mouse L5178Y cells assessed as reduction in cell viability incubated for 72 hrs by MTT assay
# Type: functional, cell-based
MEASURED_PARAMETER: IC50 (µM)
Report as a plain number; the unit µM is understood.

Observe how each entry below is paired with its result.
COMPOUND	IC50 / µM
C=C1CC[C@@H]2[C@](C)(CO)[C@H](O)CC[C@@]2(C)[C@@H]1C/C=C1/C(=O)OC[C@H]1O [ANDROGRAPHOLIDE]	14.5
C=C1CC[C@@H]2[C@](C)(COC(C)=O)[C@H](OC(C)=O)CC[C@@]2(C)[C@@H]1C[C@H](NNC(=S)NC)C1=CCOC1=O	44.4
C=C1CC[C@@H]2[C@](C)(COC(C)=O)[C@H](OC(C)=O)CC[C@@]2(C)[C@@H]1C[C@H](NNC(=S)N(C)C)C1=CCOC1=O	29.1
C=C1CC[C@@H]2[C@](C)(COC(C)=O)[C@H](OC(C)=O)CC[C@@]2(C)[C@@H]1C[C@H](NNC(=O)OCc1ccc(OC)cc1)C1=CCOC1=O	17.7
C=C1CC[C@@H]2[C@](C)(COC(C)=O)[C@H](OC(C)=O)CC[C@@]2(C)[C@@H]1C[C@H](NNC(=S)Nc1ccccc1F)C1=CCOC1=O	52.6

The compound identified as C=C1CC[C@@H]2[C@](C)(COC(C)=O)[C@H](OC(C)=O)CC[C@@]2(C)[C@@H]1C[C@H](NNC(=O)c1ccc(Cl)cc1)C1=CCOC1=O registered its IC50 at 14.2

Form field IC50, entry C=C1CC[C@@H]2[C@](C)(COC(C)=O)[C@H](OC(C)=O)CC[C@@]2(C)[C@@H]1C[C@H](NNC(=O)c1ccc(N)cc1)C1=CCOC1=O : 12.3

====

# PROTOCOL: Resistance ratio of IC50 for antiproliferative activity against multidrug resistant mouse L5178Y cells transfected with human ABCB1 to IC50 for antiproliferative activity against mouse L5178Y cells
# Type: functional
In this section, each of the molecules is paired with its reported Ratio.
Please give only the number in your answer, with no unit.

Observe how each entry below is paired with its result.
MOLECULE	ASSAY_VALUE
C=C1CC[C@@H]2[C@](C)(COC(C)=O)[C@H](OC(C)=O)CC[C@@]2(C)[C@@H]1C[C@H](NNC(=O)c1cccnc1)C1=CCOC1=O	0.94
C=C1CC[C@@H]2[C@](C)(COC(C)=O)[C@H](OC(C)=O)CC[C@@]2(C)[C@@H]1C[C@H](NNC(=S)NCCN1CCOCC1)C1=CCOC1=O	0.96
C=C1CC[C@@H]2[C@](C)(COC(C)=O)[C@H](OC(C)=O)CC[C@@]2(C)[C@@H]1C[C@H](NNC(=S)NC)C1=CCOC1=O	1.16
C=C1CC[C@@H]2[C@](C)(COC(C)=O)[C@H](OC(C)=O)CC[C@@]2(C)[C@@H]1C[C@H](NNC(=O)c1cccs1)C1=CCOC1=O	0.96

Recorded result, C=C1CC[C@@H]2[C@](C)(COC(C)=O)[C@H](OC(C)=O)CC[C@@]2(C)[C@@H]1C[C@H](NNC(=S)NC(C)(C)C)C1=CCOC1=O , Ratio: 0.9

Recorded Ratio (molecule C=C1CC[C@@H]2[C@](C)(CO)[C@H](O)CC[C@@]2(C)[C@@H]1C/C=C1/C(=O)OC[C@H]1O [ANDROGRAPHOLIDE] ): 1.03

Summary for this molecule, C=C1CC[C@@H]2[C@](C)(COC(C)=O)[C@H](OC(C)=O)CC[C@@]2(C)[C@@H]1C[C@H](NNC(=O)OCc1ccc(OC)cc1)C1=CCOC1=O : Ratio is 1.32

Record summary for C=C1CC[C@@H]2[C@](C)(COC(C)=O)[C@H](OC(C)=O)CC[C@@]2(C)[C@@H]1C[C@H](NNC(=S)Nc1ccc(C)cc1)C1=CCOC1=O : reported Ratio = 1.31

Noted for C=C1CC[C@@H]2[C@](C)(COC(C)=O)[C@H](OC(C)=O)CC[C@@]2(C)[C@@H]1C[C@@H](NNC(=O)c1ccc(C(F)(F)F)cc1)C1=CCOC1=O : its Ratio reads 1.08

// sample C=C1CC[C@@H]2[C@](C)(COC(C)=O)[C@H](OC(C)=O)CC[C@@]2(C)[C@@H]1C[C@H](NNC(=S)Nc1cccc2ccccc12)C1=CCOC1=O , its Ratio was 0.97

Noted for COc1cccc2c1C(=O)c1c(O)c3c(c(O)c1C2=O)C[C@@](O)(C(=O)CO)C[C@@H]3O[C@H]1C[C@H](N)[C@H](O)[C@H](C)O1 [DOXORUBICIN] : its Ratio reads 95.43

Record C=C1CC[C@@H]2[C@](C)(COC(C)=O)[C@H](OC(C)=O)CC[C@@]2(C)[C@@H]1C[C@H](NNC(=O)c1ccc(Cl)cc1)C1=CCOC1=O , field Ratio: 0.64

What the record says about C=C1CC[C@@H]2[C@](C)(COC(C)=O)[C@H](OC(C)=O)CC[C@@]2(C)[C@@H]1C[C@H](NNC(=S)Nc1ccc([N+](=O)[O-])cc1)C1=CCOC1=O : Ratio is 3.4

Lab book: Ratio of C=C1CC[C@@H]2[C@](C)(COC(C)=O)[C@H](OC(C)=O)CC[C@@]2(C)[C@@H]1C[C@H](NNC(=S)NCc1ccco1)C1=CCOC1=O noted as 1.43

Ratio measured on C=C1CC[C@@H]2[C@](C)(COC(C)=O)[C@H](OC(C)=O)CC[C@@]2(C)[C@@H]1C[C@H](NNC(=O)c1ccc(N)cc1)C1=CCOC1=O = 0.44
